The origin of these recorded values is patent US20210324028A1.

Target: T1, human IL-2Rβ (human, UniProt P14784 27-240, limits assumed)
T1 construct: also called hIL-2Rβ; IL-2 receptor beta
T1 sequence (looked up): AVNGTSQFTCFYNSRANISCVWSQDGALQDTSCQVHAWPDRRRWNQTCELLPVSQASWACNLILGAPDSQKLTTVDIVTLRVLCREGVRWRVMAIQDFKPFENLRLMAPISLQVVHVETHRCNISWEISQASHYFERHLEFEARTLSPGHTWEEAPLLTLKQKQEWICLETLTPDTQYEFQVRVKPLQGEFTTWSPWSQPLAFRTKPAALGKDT
Test: SPR, kinetic fit
pKd: −log10 of the molar value.

{"BINDER": "hIL-15 V49R/K11W (ligand) NWVNVISDLKWIEDLIQSMHIDATLYTESDVHPSCKVTAMKCFLLELQRISLESGDASIHDTVENLIILANNSLSSNGNVTESGCKECEELEEKNIKEFLQSFVHIVQMFINTGGGGSGHHHHHHHHGGGLNDIFEAQKIEWHE", "pKd": 6.46}
{"BINDER": "hIL-15 V49R/D30G (ligand) NWVNVISDLKKIEDLIQSMHIDATLYTESGVHPSCKVTAMKCFLLELQRISLESGDASIHDTVENLIILANNSLSSNGNVTESGCKECEELEEKNIKEFLQSFVHIVQMFINTGGGGSGHHHHHHHHGGGLNDIFEAQKIEWHE", "pKd": 6.29}
{"BINDER": "hIL-15 V49R/N4Y (ligand) NWVYVISDLKKIEDLIQSMHIDATLYTESDVHPSCKVTAMKCFLLELQRISLESGDASIHDTVENLIILANNSLSSNGNVTESGCKECEELEEKNIKEFLQSFVHIVQMFINTGGGGSGHHHHHHHHGGGLNDIFEAQKIEWHE", "pKd": 6.93}
{"BINDER": "hIL-15 V49R/H32F (ligand) NWVNVISDLKKIEDLIQSMHIDATLYTESDVFPSCKVTAMKCFLLELQRISLESGDASIHDTVENLIILANNSLSSNGNVTESGCKECEELEEKNIKEFLQSFVHIVQMFINTGGGGSGHHHHHHHHGGGLNDIFEAQKIEWHE", "pKd": 6.50}
{"BINDER": "hIL-15 V49R/N1R (ligand) RWVNVISDLKKIEDLIQSMHIDATLYTESDVHPSCKVTAMKCFLLELQRISLESGDASIHDTVENLIILANNSLSSNGNVTESGCKECEELEEKNIKEFLQSFVHIVQMFINTGGGGSGHHHHHHHHGGGLNDIFEAQKIEWHE", "pKd": 6.32}
